The reported measurements were obtained from patent US20220144848A1.

- target.or.system: human plasma kallikrein (Homo sapiens, UniProt P03952)
- Sequence (P03952 391-638 limits assumed): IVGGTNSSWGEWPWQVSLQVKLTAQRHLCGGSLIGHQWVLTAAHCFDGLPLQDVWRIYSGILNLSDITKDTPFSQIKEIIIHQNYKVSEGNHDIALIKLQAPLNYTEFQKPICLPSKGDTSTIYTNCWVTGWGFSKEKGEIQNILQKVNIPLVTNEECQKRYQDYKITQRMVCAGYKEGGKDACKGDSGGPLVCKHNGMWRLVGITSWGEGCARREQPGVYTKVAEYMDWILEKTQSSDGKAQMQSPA
- Sequence (P03952 20-390 partner limits assumed): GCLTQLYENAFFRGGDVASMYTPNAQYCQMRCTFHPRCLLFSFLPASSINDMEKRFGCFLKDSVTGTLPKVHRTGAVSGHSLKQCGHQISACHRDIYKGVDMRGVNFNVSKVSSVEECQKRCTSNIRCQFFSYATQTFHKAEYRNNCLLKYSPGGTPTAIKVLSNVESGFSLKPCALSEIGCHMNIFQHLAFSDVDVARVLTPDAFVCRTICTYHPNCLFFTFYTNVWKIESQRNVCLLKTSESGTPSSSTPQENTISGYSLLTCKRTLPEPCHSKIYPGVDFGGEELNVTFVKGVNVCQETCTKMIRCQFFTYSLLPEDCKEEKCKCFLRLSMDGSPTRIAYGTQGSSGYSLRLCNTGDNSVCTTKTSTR
- assay.notes: Determination of the plasma kallikrein activity (fluorogenic peptide substrate H-Pro-Phe-Arg-AMC)
- particulars: plasma kallikrein from Kordia, 15 min preincubation, 30 min at 22° C., fluorescence; some as mean values from multiple determinations
value.kind: IC50 (µM)
Give bare numbers, in µM.

For the 4 molecules below, give their IC50 values.
1. NC(=O)c1ccc(NC(=O)C(C[C@@H]2COCCO2)n2cc3c(cc2=O)-c2cc(Cl)ccc2CC(CO)OC3)cc1 (mixture of isomers)
2. CC(C)C1Cc2ccc(Cl)cc2-c2cc(=O)n(C(C[C@@H]3COCCO3)C(=O)Nc3ccc4nn(C)nc4c3)cc2CO1 (mixture of isomers)
3. C[C@@H]1Cc2ccc(Cl)cc2-c2cc(=O)n([C@@H](CCOC(C)(C)C)C(=O)Nc3ccc(C(N)=O)c(F)c3)cc2CO1 (single isomer, unassigned)
4. COCCC(C(=O)Nc1ccn2ncnc2c1)n1cc2c(cc1=O)-c1cc(Cl)ccc1CC(C(F)(F)F)OC2 (mixture of isomers)

1
1.6
0.28
0.58
